In this section we review reported MIC values for a set of compounds.
tested on: Streptococci; experiment: Broth microdilution MIC, Streptococci (Example 11, Table 7); assay type: cell-based; settings: S. pyogenes MMX 404 ATCC 19615

| structure smiles | test value |
| --- | --- |
| CN[C@H](CC(C)C)C(=O)N[C@H]1C(=O)N[C@@H](CC(N)=O)C(=O)N[C@H]2C(=O)N[C@H]3C(=O)N[C@H](C(=O)N[C@H](C(=O)O)c4cc(O)cc(O)c4-c4cc3ccc4O)[C@H](O)c3ccc(c(Cl)c3)Oc3cc2cc(c3O[C@@H]2O[C@H](CO)[C@@H](O)[C@H](O)[C@H]2O[C@H]2C[C@](C)(N)[C@H](O)[C@H](C)O2)Oc2ccc(cc2Cl)[C@H]1O | 0.25 µg/mL |
| CC(=O)NC[C@H]1CN(c2ccc(N3CCOCC3)c(F)c2)C(=O)O1 | 2 µg/mL |
| CCCCCCCCCCNCCN[C@@]1(C)C[C@H](O[C@H]2[C@H](Oc3c4cc5cc3Oc3ccc(cc3Cl)[C@@H](O)[C@@H](NC(=O)[C@@H](CC(C)C)NC)C(=O)N[C@@H](CC(N)=O)C(=O)N[C@H]5C(=O)N[C@H]3C(=O)N[C@H](C(=O)N[C@H](C(=O)O)c5cc(O)c(CNCP(=O)(O)O)c(O)c5-c5cc3ccc5O)[C@H](O)c3ccc(c(Cl)c3)O4)O[C@H](CO)[C@@H](O)[C@@H]2O)O[C@@H](C)[C@H]1O | 0.06 µg/mL |
| CN[C@H](CC(C)C)C(=O)N[C@H]1C(=O)N[C@@H](CC(N)=O)C(=O)N[C@H]2C(=O)N[C@H]3C(=O)N[C@H](C(=O)N[C@H](C(=O)O)c4cc(O)cc(O)c4-c4cc3ccc4O)[C@H](O[C@H]3C[C@](C)(N)[C@@H](O)[C@H](C)O3)c3ccc(c(Cl)c3)Oc3cc2cc(c3O[C@@H]2O[C@H](CO)[C@@H](O)[C@H](O)[C@H]2O[C@H]2C[C@](C)(NCc3ccc(-c4ccc(Cl)cc4)cc3)[C@@H](O)[C@H](C)O2)Oc2ccc(cc2Cl)[C@H]1O | 2 µg/mL |

Could you share which MIC value was measured for CN(C)c1cc(NC(=O)CNC(C)(C)C)c(O)c2c1C[C@H]1C[C@H]3[C@H](N(C)C)C(O)=C(C(N)=O)C(=O)[C@@]3(O)C(O)=C1C2=O ?
0.015 µg/mL

----------
system: Clostridium difficile; experiment: Broth microdilution MIC, C. difficile, anaerobic, supplemented Brucella Broth (Example 11, Table 7); format: cell-based; settings: C. difficile MMX 4381 ATCC 700057, toxinAB-negative
measured endpoint: MIC (µg/mL)
Lab book: enter the figure in µg/mL, no units written.

// below: answered molecules
| molecule | test value |
| --- | --- |
| CCCCCCCCCCNCCN[C@@]1(C)C[C@H](O[C@H]2[C@H](Oc3c4cc5cc3Oc3ccc(cc3Cl)[C@@H](O)[C@@H](NC(=O)[C@@H](CC(C)C)NC)C(=O)N[C@@H](CC(N)=O)C(=O)N[C@H]5C(=O)N[C@H]3C(=O)N[C@H](C(=O)N[C@H](C(=O)O)c5cc(O)c(CNCP(=O)(O)O)c(O)c5-c5cc3ccc5O)[C@H](O)c3ccc(c(Cl)c3)O4)O[C@H](CO)[C@@H](O)[C@@H]2O)O[C@@H](C)[C@H]1O [Telavancin] | 0.12 |
| CC(=O)NC[C@H]1CN(c2ccc(N3CCOCC3)c(F)c2)C(=O)O1 [Linezolid] | 1 |
| CN(C)c1cc(NC(=O)CNC(C)(C)C)c(O)c2c1C[C@H]1C[C@H]3[C@H](N(C)C)C(O)=C(C(N)=O)C(=O)[C@@]3(O)C(O)=C1C2=O [Tigecycline] | 0.18 |

Alright, here's another molecule for you.
Could you share which MIC value was measured for CCCCCCCCCCNC1(C)CC(OC2C(Oc3c4cc5cc3Oc3ccc(cc3Cl)C(O)C3NC(=O)C(NC(=O)C5NC(=O)C(CC(N)=O)NC(=O)C(NC(=O)C(CC(C)C)NC)C(O)c5ccc(c(Cl)c5)O4)c4ccc(O)c(c4)-c4c(O)cc(O)cc4C(C(=O)O)NC3=O)OC(CO)C(O)C2O)OC(C)C1O (stereo not shown) [Compound 5, N-decyl vancomycin] ?
0.06

----------
system: Enterococci; format: cell-based; details: E. faecium MMX 4204
measured endpoint: MIC (µg/mL)
Lab book: enter the figure in µg/mL, no units written.

| structure smiles | readout units | test value |
| --- | --- | --- |
| CN[C@H](CC(C)C)C(=O)N[C@H]1C(=O)N[C@@H](CC(N)=O)C(=O)N[C@H]2C(=O)N[C@H]3C(=O)N[C@H](C(=O)N[C@H](C(=O)O)c4cc(O)cc(O)c4-c4cc3ccc4O)[C@H](O)c3ccc(c(Cl)c3)Oc3cc2cc(c3O[C@@H]2O[C@H](CO)[C@@H](O)[C@H](O)[C@H]2O[C@H]2C[C@](C)(N)[C@H](O)[C@H](C)O2)Oc2ccc(cc2Cl)[C@H]1O | µg/mL | 0.5 |

Alright, here's another compound for you.
Could you share which MIC value was measured for CN(C)c1cc(NC(=O)CNC(C)(C)C)c(O)c2c1C[C@H]1C[C@H]3[C@H](N(C)C)C(O)=C(C(N)=O)C(=O)[C@@]3(O)C(O)=C1C2=O ?
0.06

----------
system: P. acnes; test: Broth microdilution MIC, P. acnes (Table 7); format: cell-based; settings: P. acnes MMX 7942 ATCC 6919
measured endpoint: MIC (µg/mL)
Lab book: enter the figure in µg/mL, no units written.

// below: answered compounds
| compound | MIC [µg/mL] |
| --- | --- |
| CN(C)c1cc(NC(=O)CNC(C)(C)C)c(O)c2c1C[C@H]1C[C@H]3[C@H](N(C)C)C(O)=C(C(N)=O)C(=O)[C@@]3(O)C(O)=C1C2=O [Tigecycline] | 0.03 |
| CN[C@H](CC(C)C)C(=O)N[C@H]1C(=O)N[C@@H](CC(N)=O)C(=O)N[C@H]2C(=O)N[C@H]3C(=O)N[C@H](C(=O)N[C@H](C(=O)O)c4cc(O)cc(O)c4-c4cc3ccc4O)[C@H](O)c3ccc(c(Cl)c3)Oc3cc2cc(c3O[C@@H]2O[C@H](CO)[C@@H](O)[C@H](O)[C@H]2O[C@H]2C[C@](C)(N)[C@H](O)[C@H](C)O2)Oc2ccc(cc2Cl)[C@H]1O [Vancomycin] | 0.25 |
| CCCCCCCCCCNCCN[C@@]1(C)C[C@H](O[C@H]2[C@H](Oc3c4cc5cc3Oc3ccc(cc3Cl)[C@@H](O)[C@@H](NC(=O)[C@@H](CC(C)C)NC)C(=O)N[C@@H](CC(N)=O)C(=O)N[C@H]5C(=O)N[C@H]3C(=O)N[C@H](C(=O)N[C@H](C(=O)O)c5cc(O)c(CNCP(=O)(O)O)c(O)c5-c5cc3ccc5O)[C@H](O)c3ccc(c(Cl)c3)O4)O[C@H](CO)[C@@H](O)[C@@H]2O)O[C@@H](C)[C@H]1O [Telavancin] | 0.03 |

Alright, here's another compound for you.
Query MIC on P. acnes for CCCCCCCCCCNC1(C)CC(OC2C(Oc3c4cc5cc3Oc3ccc(cc3Cl)C(O)C3NC(=O)C(NC(=O)C5NC(=O)C(CC(N)=O)NC(=O)C(NC(=O)C(CC(C)C)NC)C(O)c5ccc(c(Cl)c5)O4)c4ccc(O)c(c4)-c4c(O)cc(O)cc4C(C(=O)O)NC3=O)OC(CO)C(O)C2O)OC(C)C1O (centres unmarked) [Compound 5, N-decyl vancomycin]
0.06

----------
test system: Streptococci; experiment: Broth microdilution MIC, Streptococci (Example 11, Table 7); type: cell-based; settings: S. constellatus (AGS) MMX 5677
measured endpoint: MIC (µg/mL)
Lab book: enter the figure in µg/mL, no units written.

// below: answered compounds
| structure smiles | target or system | readout units | MIC |
| --- | --- | --- | --- |
| CN(C)c1cc(NC(=O)CNC(C)(C)C)c(O)c2c1C[C@H]1C[C@H]3[C@H](N(C)C)C(O)=C(C(N)=O)C(=O)[C@@]3(O)C(O)=C1C2=O | Streptococci | µg/mL | 0.03 |
| CN[C@H](CC(C)C)C(=O)N[C@H]1C(=O)N[C@@H](CC(N)=O)C(=O)N[C@H]2C(=O)N[C@H]3C(=O)N[C@H](C(=O)N[C@H](C(=O)O)c4cc(O)cc(O)c4-c4cc3ccc4O)[C@H](O)c3ccc(c(Cl)c3)Oc3cc2cc(c3O[C@@H]2O[C@H](CO)[C@@H](O)[C@H](O)[C@H]2O[C@H]2C[C@](C)(N)[C@H](O)[C@H](C)O2)Oc2ccc(cc2Cl)[C@H]1O | Streptococci | µg/mL | 0.25 |

Alright, here's another compound for you.
Could you share which MIC value was measured for CC(=O)NC[C@H]1CN(c2ccc(N3CCOCC3)c(F)c2)C(=O)O1 ?
0.5
